test: Lipophilicity, log D of the compound; type: physicochemical; conditions: octanol/water
MEASURED PROPERTY: logD
Give your answer as a number; write no unit.

Kindly note the recorded logD for O=C1c2cccc3c(NCCO)ccc(c23)C(=O)N1c1cccc(Br)c1 , which is 3.45

----------
experiment: Inhibition of HCV1a RB5 NS5B Cdelta21 RNA dependent RNA polymerase; design: species or system Hepatitis C virus subtype 1a
MEASURED PROPERTY: IC50 (nM)
Report only the number, with the unit nM understood.

Kindly note the recorded IC50 for O=C1c2cccc3c(NCCO)ccc(c23)C(=O)N1c1cccc(Br)c1 , which is 64

----------
assay: Inhibition of HCV3a.7 NS5B Cdelta21 RNA dependent RNA polymerase; design: species or system Hepacivirus hominis, 3a.7
MEASURED PROPERTY: IC50 (nM)
Report only the number, with the unit nM understood.

Kindly note the recorded IC50 for O=C1c2cccc3c(NCCO)ccc(c23)C(=O)N1c1cccc(Br)c1 , which is 760

Data provenance: ChEMBL document CHEMBL1151959
